B1: C10orf62 (parent)
chain: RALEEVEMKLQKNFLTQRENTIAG

variants of: B1; experiment: protein stability index of a GFP-peptide fusion (GPS, HEK-293T) (PSI 1-6); higher = more stable; settings: c terminus: a fixed tail appended;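 note: lentivirally expressed fusions sorted by FACS into six bins by GFP to DsRed ratio, PSI derived from sequencing read proportions per bin multiplied by bin number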
Examples of variants with documented protein stability index follow.
OBSERVABLE: protein stability index

{"columns": ["RESIDUE_CODES", "OBSERVABLE", "REPORTED_MEASUREMENT"],
 "data": [
  ["RALEEVEMNLQKNFLTQRENTIAG [K9N]", "protein stability index", 2.98],
  ["RALEEVEMKLQKNFLTQCENTIAG [R18C]", "protein stability index", 2.91],
  ["RALEEVEMMLQKNFLTQRENTIAG [K9M]", "protein stability index", 2.79],
  ["RALEEVEMKIQKNFLTQRENTIAG [L10I]", "protein stability index", 3.5],
  ["RALEEVEMKLQKNFLTHRENTIAG [Q17H]", "protein stability index", 3.31],
  ["RALEEVEMELQKNFLTQRENTIAG [K9E]", "protein stability index", 3.9],
  ["RALEEVEMKLQKNFLTQRENTIPG [A23P]", "protein stability index", 3.93],
  ["RALEEVEMKLQKNFLTQRENTIAD [G24D]", "protein stability index", 4.37],
  ["RLLEEVEMKLQKNFLTQRENTIAG [A2L]", "protein stability index", 2.61],
  ["RALEEVEMKLQKNFLTQREFTIAG [N20F]", "protein stability index", 2.52],
  ["RALEGVEMKLQKNFLTQRENTIAG [E5G]", "protein stability index", 3.6],
  ["RALEEVEMKLQKNFLYQRENTIAG [T16Y]", "protein stability index", 2.74],
  ["RALEEVEMKLQKNFLTQREMTIAG [N20M]", "protein stability index", 3.18],
  ["RALEEVEMKLEKNFLTQRENTIAG [Q11E]", "protein stability index", 4.28],
  ["RALEEVFMKLQKNFLTQRENTIAG [E7F]", "protein stability index", 2.17]
]}
